Below, each entry is listed with its recorded Imax (%).
# System Name: p-EGFR Del19/C797S (H1975-clone #23 cells) (Homo sapiens)
# Assay Method Text: Cell p-EGFR inhibition assay, HTRF, H1975-clone#23 (DEL19/C797S) cells
# Assay type: cell-based
# Run Parameters: 16 h treatment, maximum percentage of pEGFR inhibition
Outcome Measure: Imax (%)

compound="Cc1cc2cc(n1)-c1c(C)nn(C)c1OC[C@H]1CC[C@H](C1)CN1/C(=N/C2=O)Nc2ccc(N3CCN(C4CCN(c5cc(F)c([C@H]6CCC(=O)NC6=O)c(F)c5)CC4)C[C@H]3C)cc21 [Example 190]" result_number=100.67
compound="Cc1cc2cc(n1)-c1c(C)nn(C)c1OC[C@H]1CCC(C1)CN1/C(=N/C2=O)Nc2ccc(N3CCN([C@@H]4CCN(c5ccc(C6CCC(=O)NC6=O)nc5C)C[C@@H]4F)CC3)cc21 (stereo partly drawn) [Example 79]" result_number=101.4
compound="Cc1cc2cc(n1)-c1cnn(C)c1OC[C@H]1CCC(C1)CN1/C(=N/C2=O)Nc2ccc(N3CC4(C3)CN(C3CCN(c5cc(F)c([C@H]6CCC(=O)NC6=O)c(F)c5)CC3)C4)cc21 [Example 117]" result_number=100

* * *

Reported IC50 is given for each of the following molecules.
# System Name: p-EGFR Del19/C797S (H1975-clone #23 cells) (Homo sapiens)
# Assay Method Text: Cell p-EGFR inhibition assay, HTRF, H1975-clone#23 (DEL19/C797S) cells
# Run Parameters: 16 h treatment, pEGFR inhibition
Outcome Measure: IC50 (nM)

molecule=Cc1cc2cc(n1)-c1c(C)nn(C)c1OC[C@H]1CC[C@H](C1)CN1/C(=N/C2=O)Nc2ccc(N3CCN(C4CCN(c5cc(F)c([C@H]6CCC(=O)NC6=O)c(F)c5)CC4)[C@@H](CC#N)C3)cc21 outcome_measure=IC50 unit_spec=nM result_number=0.6
molecule=Cc1cc2cc(n1)-c1c(C)nn(C)c1OC[C@H]1CCC(C1)CN1/C(=N/C2=O)Nc2ccc(N3CCN(CC4CCN(c5cc(F)c([C@H]6CCC(=O)NC6=O)c(F)c5)CC4)[C@H](C)C3)cc21 outcome_measure=IC50 unit_spec=nM result_number=1.76
molecule=Cc1cc2cc(n1)-c1c(C)nn(C)c1OC[C@H]1CC[C@H](C1)CN1/C(=N/C2=O)Nc2ccc(N3CCN(CC4CN(c5cc(F)c([C@H]6CCC(=O)NC6=O)c(F)c5)C4)[C@H](C(F)F)C3)cc21 outcome_measure=IC50 unit_spec=nM result_number=0.539
molecule=COC[C@H]1CN(c2cc3c(cc2C)N/C2=N\C(=O)c4cc(C)nc(c4)-c4c(C)nn(C)c4OC[C@H]4CC[C@H](C4)CN23)CCN1C1CCN(c2cc(F)c([C@H]3CCC(=O)NC3=O)c(F)c2)CC1 outcome_measure=IC50 unit_spec=nM result_number=2.74
molecule="Cc1cc2cc(n1)-c1c(C)nn(C)c1OC[C@H]1CC[C@H](C1)CN1/C(=N/C2=O)Nc2ccc(N3CCC(NC4CN(c5c(F)cc(OC6CCC(=O)NC6=O)cc5F)C4)CC3)cc21 (stereo partly drawn)" outcome_measure=IC50 unit_spec=nM result_number=3.65
molecule=Cc1cc2cc(n1)-c1c(C)nn(C)c1OC[C@H]1CC[C@H](C1)CN1/C(=N/C2=O)Nc2ccc(N3CCN(C4CCN(c5cc(F)c([C@H]6CCC(=O)NC6=O)c(F)c5)CC4)[C@H](C)C3)cc21 outcome_measure=IC50 unit_spec=nM result_number=1.39
molecule="Cc1cc2cc(n1)-c1c(C)nn(C)c1OC[C@H]1CC[C@H](C1)CN1/C(=N/C2=O)Nc2ccc(N3CCN([C@@H]4CCN(c5ccc(OC6CCC(=O)NC6=O)cc5)C[C@@H]4F)CC3)cc21 (stereo partly drawn)" outcome_measure=IC50 unit_spec=nM result_number=0.97
molecule=COC[C@@H]1CN(c2cc3c(cc2C)N/C2=N\C(=O)c4cc(C)nc(c4)-c4cnn(C)c4OC[C@H]4CC[C@H](C4)CN23)CCN1C1CCN(c2cc(F)c([C@H]3CCC(=O)NC3=O)c(F)c2)CC1 outcome_measure=IC50 unit_spec=nM result_number=0.8
molecule="Cc1cc2cc(n1)-c1cnn(C)c1OC[C@H]1CCC(C1)CN1/C(=N/C2=O)Nc2ccc(N3CCN(C4CCN(c5ccc(NC6CCC(=O)NC6=O)cc5Cl)CC4)CC3)cc21 (stereo partly drawn)" outcome_measure=IC50 unit_spec=nM result_number=0.8
molecule=COC[C@@H]1CN(c2ccc3c(c2)N2CC4CC[C@H](COc5c(c(C)nn5C)-c5cc(cc(C)n5)C(=O)/N=C/2N3)C4)CCN1CC1CCN(c2cc(F)c([C@H]3CCC(=O)NC3=O)c(F)c2)CC1 outcome_measure=IC50 unit_spec=nM result_number=4.06
molecule=Cc1cc2cc(n1)-c1c(C)nn(C)c1OC[C@H]1CC[C@H](C1)CN1/C(=N/C2=O)Nc2ccc(N3CCN(C[C@@H]4CCN(c5cc(F)c([C@H]6CCC(=O)NC6=O)c(F)c5)C4)CC3)cc21 outcome_measure=IC50 unit_spec=nM result_number=2.48
molecule=Cc1cc2cc(n1)-c1cnn(CCO)c1OC[C@H]1CCC(C1)CN1/C(=N/C2=O)Nc2ccc(N3CCN(C4CCN(c5cc(F)c([C@H]6CCC(=O)NC6=O)c(F)c5)CC4)CC3)cc21 outcome_measure=IC50 unit_spec=nM result_number=0.5
molecule=Cc1cc2cc(n1)-c1c(C)nn(C)c1OC[C@H]1CC[C@H](C1)CN1/C(=N/C2=O)Nc2ccc(N3CCN(CCC4CCN(c5cc(F)c([C@H]6CCC(=O)NC6=O)c(F)c5)CC4)CC3)cc21 outcome_measure=IC50 unit_spec=nM result_number=7.32
molecule=Cc1cc2cc(n1)-c1cnn(C)c1OC[C@H]1CCC(C1)CN1/C(=N/C2=O)Nc2ccc(N3CCC(CN4CCC(Nc5cc(F)c([C@H]6CCC(=O)NC6=O)c(F)c5)CC4)CC3)cc21 outcome_measure=IC50 unit_spec=nM result_number=0.796
molecule=Cc1cc2cc(n1)-c1c(C)nn(C)c1OC[C@H]1CC[C@H](C1)CN1/C(=N/C2=O)Nc2ccc(N3CC4CCC3CN4C3CCN(c4cc(F)c([C@H]5CCC(=O)NC5=O)c(F)c4)CC3)cc21 outcome_measure=IC50 unit_spec=nM result_number=2.74
molecule=COC[C@H]1CN(c2ccc3c(c2)N2CC4CC[C@H](COc5c(c(C)nn5C)-c5cc(cc(C)n5)C(=O)/N=C/2N3)C4)CCN1C1CCN(c2cc(F)c([C@H]3CCC(=O)NC3=O)c(F)c2)CC1 outcome_measure=IC50 unit_spec=nM result_number=2.2
molecule=Cc1cc2cc(n1)-c1c(C)nn(C)c1OC[C@H]1CC[C@H](C1)CN1/C(=N/C2=O)Nc2ccc(N3CCC(N(C)C4CN(c5cc(F)c([C@H]6CCC(=O)NC6=O)c(F)c5)C4)CC3)cc21 outcome_measure=IC50 unit_spec=nM result_number=1.42
molecule=COC[C@H]1CN(c2ccc3c(c2)N2C[C@@H]4CC[C@H](COc5c(c(C)nn5CCO)-c5cc(cc(C)n5)C(=O)/N=C/2N3)C4)CCN1C1CCN(c2cc(F)c([C@H]3CCC(=O)NC3=O)c(F)c2)CC1 outcome_measure=IC50 unit_spec=nM result_number=0.789
